Taken from a melting point compilation (Tetko et al.; mined from patent text by program, amines drawn as free bases though some values may be those of a salt).

Property: melting point; scope: individual compounds

Study these solved cases before continuing.
• COc1cc2c(cc1OC)C(C=O)c1ccccc1CC2 (stereo not drawn) = 130 to 132 °C
• CCc1nn(C2CN(C(C)C)C2)c2c(=O)[nH]c(-c3cc(S(C)(=O)=O)ccc3OCC(C)C)nc12 = 206 to 209 °C

Kindly review the next compound as well.
Requested read-out: melting point. Entry: CCOC(=O)C(Cl)N=Nc1ccccc1C(=O)c1ccccn1 (stereo not drawn)
123 to 125 °C

----------
quantityMeasured: melting point

Some entries whose results are on file:
• CON=CC(C)(C)NC(=O)c1c(I)cccc1C(=O)Nc1ccc(OC(C(F)(F)F)C(F)(F)F)nc1C = 220 °C
• COc1ccc(NC(=S)c2ccc(N(C)C)cc2)cc1 = 192 °C
• CCCCCCCCOc1ccc(-c2nc(-c3ccccc3)c(-c3ccccc3)n2CCCCCCCC(=O)O)cc1 = 114 to 115 °C
• COC(=O)C1=C(C)NC(C)=C(C(=O)OCCN2CCN(Cc3ccccc3)CC2)C1c1cccc([N+](=O)[O-])c1 (stereo unspecified) = 106 to 108 °C
• BrCCCc1ccc(C=Cc2cc3ccccc3s2)s1 = 109 to 111 °C
• Cc1c(C(=O)Nc2ccc(N3CCN(CCOCCO)CC3)c(C#N)c2)cnn1-c1ccc(Cl)cc1 = 196 °C
• CNc1nc(-c2cc(C)c(O)c(C)c2)cc2ccc(CN3CCN(C)CC3)cc12 = 264 to 266 °C
• CCOC(=O)CCCCc1cn(-c2cccnc2)c2ccccc12 = 56 to 58 °C

Could you share which melting point value was measured for COc1nc(N)nc(-c2ccccc2)c1-c1ccc(=O)n(C)n1 ?
218 to 220 °C

Which value of melting point has been reported for CCSc1cc(C)nc(SCC)c1NC(=O)CCCCCCCSc1nc2c(C)c(Cl)cc(C(C)C)c2o1 in the records?
82 to 84 °C

Looking for the measured melting point of O=C(c1ccc(Cl)cc1)n1cc(Cc2cc(=O)n(C3CCCCC3)[nH]2)c2ccccc21 , can you help?
109 to 111 °C

Item Cn1cnnc1C(O)(c1ccc(Cl)cc1)c1ccc2c(c1)c(-c1cccc(Cl)c1)cc(=O)n2C (stereo unspecified) has what recorded melting point?
182 °C

----------
# reported melting point; entries follow

Give the measured melting point of Nc1nc(=O)n(C2OC(CO)CC2F)cc1F (centres undefined) .
209 to 210 °C

Requested field: melting point. Item: N#CCCCSc1nccc(N)n1
99 to 100 °C

Which melting point value belongs to CCOC(=O)c1cc(C(Br)Br)cnc1Br ?
88 to 89 °C

Name the recorded melting point for CCOn1c(C(F)(F)F)nc2c([N+](=O)[O-])cc(C(F)(F)F)cc21 .
94 to 96 °C

Bench note: what melting point did NN=CNc1nc(CSCCN=CNS(=O)(=O)c2ccc(Br)cc2)cs1 show?
107 to 110 °C

What does the record list as melting point for c1cnc2ccc(Cn3nnc4ccc(-c5ccc(N6CCCCC6)nc5)nc43)cc2c1 ?
133 to 135 °C

Name the reported melting point value associated with the compound COC(=O)C(O)=Cc1ncc(Cc2ccc(F)cc2)cn1
132 to 134 °C

Give the measured melting point of CC(C)(N)Cn1c(CO)nc2c(N)nc3ccccc3c21 .
248 to 250 °C

Data request, read-out melting point, for Cc1noc(NS(=O)(=O)c2ccc(Cl)c(Cl)c2)c1Br
144 to 146 °C

What measured melting point goes with Cc1c(NCCCN2CCN(c3ccccc3O)CC2)n(C)c(=O)n(C)c1=O ?
203 to 205 °C

Entry O=S(=O)(Nc1cccc2cc(C3=NCC(CCO)S3)[nH]c12)c1cccs1 (centres undefined) has what melting point?
156 to 158 °C

Query (compound): CNC(=O)COc1ccc2c(-c3ccccc3F)noc2c1Cl ; field requested: melting point
164 °C

Param item = CCOC(=O)c1c(C)nc(N2CCCCC2)c2nccnc12 ; retrieve measured melting point.
73 to 74 °C

What value of melting point has been recorded for this entry: COC(=O)c1ccc(NC(=O)c2ccc(Br)nc2)nc1
173 to 174 °C

----------
quantityMeasured: melting point

Please review the following examples before continuing.
• CC(C)(C)c1ccc([C@H]2CCCN2[S@@](=O)C(C)(C)C)cc1 = 45 to 50 °C
• CC1(C)OC(C=Cc2ccncc2)=CC1=O = 94 to 96 °C
• Cc1cnc(N)c(=O)n1C = 217 to 219 °C
• CC(=NNC(=N)N)c1sc(-c2ccc3ccccc3c2)nc1C = 288 to 290 °C
• COC1CCN(c2cccc(-c3cnc4[nH]cc(C(=O)C(C)(C)C)c4n3)c2)C1 (stereo not drawn) = 194 to 195 °C
• CN(C)c1cc(NC(=O)c2ccccc2-c2ccc(C(F)(F)F)cc2)cnc1OCCCC1(C(=O)NCC(F)(F)F)c2ccccc2-c2ccccc21 = 140 to 141 °C

What does the record list as melting point for Cc1cccc(Cl)c1NC(=O)CN1CCN(CCCC(c2ccc(F)cc2)c2ccc(F)cc2)C(CO)C1 (stereo not drawn) ?
150 °C

Name the recorded melting point for COc1ccc(CCNc2c(C)c(C)c3c(c2C)C(c2ccc(C(C)C)cc2)C(C)(C)O3)cc1 (stereo not drawn) .
63 to 65 °C

----------
quantityMeasured: melting point

Previously resolved entries follow.
• Clc1cccc2cc3cccc(Cl)c3cc12 = 155 °C
• CCN(CC)CCNc1ccc(CO)c2sc3ccc(OC)cc3c(=O)c12 = 103 to 105 °C
• CC(C)S(=O)(=O)N1C[C@@H](c2c[nH]c3ccccc23)[C@H](c2cn3c4c(cccc24)CCC3)C1 = 100 to 115 °C
• O=c1[nH]c2ncc(-c3ccc(O)cc3)nc2n1C1CCCC1 = 299 to 301 °C
• C=CCc1ccc(OCC2CCCO2)c2c(=O)cc(C(N)=O)oc12 (configuration not stated) = 212 to 214 °C
• CCOC(=O)C1N=C(c2ccccc2)c2cc(Cl)ccc2NC1=O (configuration not stated) = 244 °C
• CC(C)(C)OC(=O)Nc1ccc(NC(=O)OC(C)(C)C)c(Br)c1 = 130 °C
• Cc1oc(-c2ccc(C(N)=O)cc2)nc1CCOc1ccc(OC(C)(C)C(=O)O)cc1 = 126 to 127 °C
• CN1C[C@@H]2c3cc(Cl)ccc3Oc3ccccc3[C@H]2C1=O (relative stereo) = 148 °C
• COc1ccc(Cc2cnc(N[N+](=O)[O-])[nH]c2=O)cn1 = 184 to 186 °C

Fill blank: measured melting point of the compound Clc1ccc(SC(Cn2ccnc2)C23CC4CC(CC(C4)C2)C3)cc1Cl (configuration not stated) is ____.
179 to 181 °C

Request the reported melting point associated with Cn1nc(-c2ccc(Cl)cc2)cc1N=Cc1ccsc1
130 °C

Bench note: what melting point did CNc1nc(-c2ccccc2)c(-c2ccc(=O)n(C(C)C)n2)s1 show?
234 to 236 °C

----------
This listing pairs molecules with measured melting point.

Here are 4 molecules together with their reported answers.
- O=C(O)CC1CN(Cc2ccc(Cl)c(Cc3ccccc3)c2Cl)C(=O)N(c2ccc(Br)cc2)C1 (stereo not given): 174 to 176 °C
- CC(=O)N(CC(C)O)c1c(C)cccc1C (stereo not given): 64 to 67 °C
- CCOc1ccc(C)c(NCc2ccccc2)c1: 69 to 71 °C
- CCOC(=O)C(C#N)=Cc1c(Cl)n(Cc2ccc(Cl)cc2)c2ccccc12: 179 to 180 °C

Requested field: melting point. Item: O=C1NC(=O)C2(c3ccccc3)CC1C2
217 to 218 °C

Fill in: melting point of Cc1cc(C)c(Nc2nc(Nc3ccc(C#N)cc3)ncc2-c2ccccc2)c(C)c1 is ___
209 to 214 °C

May I ask what melting point has been recorded for CC(Cl)C(=O)Nc1cccc2c1C(=O)c1cccc(NC(=O)C(C)Cl)c1C2=O (stereo not given) ?
288 to 289 °C

So what's the measured melting point for this one? Cn1c(COCCn2cnc3c(N)nc4ccccc4c32)cc2ccccc21
243 to 245 °C

Name the reported melting point value associated with the molecule O=[N+]([O-])c1cc(Cl)c(Cl)cc1NC1C=CCC1 (stereo not given)
85 to 86 °C

Item O=c1[nH][nH]c(=O)c2c(O)c3ccc(F)cc3nc12 has what recorded melting point?
228 °C

Name the recorded melting point for O=C(c1ccc(Br)cc1)N1CC(=O)N2CCc3ccccc3C2C1 (stereo not given) .
204 to 206 °C

Sample CCc1ccccc1NC(=O)C(C#N)=CN(C)C — what was its melting point?
128 to 130 °C

Recorded melting point of CN1C(=O)CC[C@]2(C)c3ccc(-c4c5ccccc5cc5ccccc45)cc3CC[C@@H]12 , please.
95 to 110 °C

Could you share which melting point value was measured for CC(C)c1sc(-c2ccccc2)c(-c2ccc(F)cc2)c1CO ?
140 to 143 °C

Bench note: what melting point did C=CC(O)c1[nH]c(=O)c2c(ccc3nc(Nc4c(Cl)cccc4Cl)n(C)c32)c1C (stereo not given) show?
235 to 236 °C

Which melting point reading was recorded for the molecule CCc1noc(-c2cn(-c3nc[nH]n3)cn2)n1 ?
242 to 243 °C

Find the recorded melting point belonging to Cc1oc(-c2ccccc2)nc1COc1nn(Cc2ccc(Oc3ccccc3)cc2)cc1C=O and report it.
129 to 130 °C

Quick one: melting point of CCOC(=O)c1cn(C)c2cc(Cl)sc2c1=O ?
168 to 171 °C

Item under review: C=CC(O)(c1cccnc1)C(O)c1ccccc1Cl (stereo not given) . Reported melting point?
110 to 112 °C

Give the measured melting point of CSCCC(=O)Nc1cc(-c2c(-c3ccc(F)c(C)c3)nc3cccnn23)ccn1 .
158 to 159 °C
